- Test system: Liver
- method: Half life in human liver microsomes at 1.5 uM in presence of NADPH by liquid chromatography/tandem mass spectrometric analysis
- Format: ADME, microsome
experimental_endpoint: t1/2 (min)
Answer with a number only, understood to be in min.

molecule	t1/2, min
O=C(Nc1ccc2sc(-c3cccc(F)c3)nc2c1)N1CCCCC1	8.9
O=C(NCCc1nc(-c2cccc(F)c2)cs1)N1CCC(F)CC1	5.6

The record that follows has no t1/2 shown yet.
Consider the molecule O=C(NCCc1nc(-c2cccc(F)c2)cs1)N1CCCC(F)C1 (stereo unspecified) . State its measured t1/2.
10

* * *

- method: Drug level in mouse plasma at 5 mg/kg, ip administered as single dose measured at 1 hr post dose by liquid chromatography/tandem mass spectrometric analysis
- Type: ADME, organism-based
Item-by-item account of concentration at 1 h
The reply should contain only the number, in nM.

Example results:
molecule	unit_of_measurement	concentration at 1 h
Cl.S=C(NCCc1nc(-c2ccccc2)cs1)N1CCCCC1	nM	2000
CN(C)C1CCN(C(=O)Nc2ccc3sc(-c4ccc(F)c(F)c4)nc3c2)C1 (stereo not given)	nM	780
O=C(Nc1ccc2sc(-c3ccccc3)nc2c1)N1CCCC1	nM	3400

Supply recorded concentration at 1 h for O=C(Nc1ccc2sc(-c3cccc(F)c3F)nc2c1)N1CCCC1 here.
1300

Please report the measured concentration at 1 h for O=C(Nc1ccc2sc(-c3ccc(F)c(F)c3)nc2c1)N1CCCCC1
2520

Read off the recorded concentration at 1 h for O=C(Nc1ccc2sc(-c3ccc(F)c(F)c3)nc2c1)N1CCC(F)C1 (stereo not given)
3260

Specify reported concentration at 1 h for the molecule shown: O=C(Nc1ccc2sc(-c3ccc(F)c(F)c3)nc2c1)N1CCC(F)(F)C1
2810

Note down concentration at 1 h recorded for O=C(Nc1ccc2sc(-c3ccc(F)c(F)c3)nc2c1)N1CCCC1
2610

Input O=C(Nc1ccc2sc(-c3ccc(F)c(F)c3)nc2c1)N1CCC(F)CC1 , output reported concentration at 1 h.
2510

Give the reported concentration at 1 h for this molecule. O=C(Nc1ccc2sc(-c3cccc(F)c3)nc2c1)N1CCCC1
2220

* * *

- method: Cytotoxicity against human CRL8155 cells assessed as growth inhibition after 48 hrs by Alamar blue assay
- Format: cell-based
- setup_conditions: human, crl8155, 48 h
experimental_endpoint: EC90

Complete the entry with EC90 for N=C(N)c1ccc(OCCCCCOc2ccc(C(=N)N)cc2)cc1
> 100 µM

Using known records, supply EC90 for O=C(Nc1ccc2sc(-c3ccc(F)c(F)c3)nc2c1)N1CCC(F)(F)C1
> 50 µM

Tell us which EC90 value is on record for O=C(Nc1ccc2sc(-c3ccc(F)cc3)nc2c1)N1CCCC1
> 50 µM

Complete the entry with EC90 for O=C(Nc1ccc2sc(-c3ccccc3)nc2c1)N1CCCCC1
> 50 µM

* * *

- method: Drug level in mouse plasma at 50 mg/kg, po administered as single dose via gavage measured at 4 hrs post dose by liquid chromatography/tandem mass spectrometric analysis
- Format: ADME, organism-based
experimental_endpoint: concentration at 4 h (µM)
Numeric answer only, unit µM assumed.

Consider the molecule O=C(Nc1ccc2sc(-c3ccc(F)c(F)c3)nc2c1)N1CC[C@H](F)C1 and give its recorded concentration at 4 h.
10.2

* * *

- method: Drug level in Swiss-Webster mouse plasma infected with Trypanosoma brucei brucei TREU667 at 50 mg/kg, po bid administered via gavage for 10 days starting from 21 days post infection measured at 6 hrs post last dose
- Assay type: ADME, organism-based
experimental_endpoint: concentration at 6 h (µM)
Write the number in µM without appending the unit.

Please give the documented concentration at 6 h of O=C(Nc1ccc2sc(-c3ccc(F)c(F)c3)nc2c1)N1CC[C@H](F)C1
26.7

* * *

- method: AUC (0 to infinity) in mouse at 50 mg/kg, po administered as single dose via gavage as 7% Tween 80/3% EtOH/5% DMSO formulation by liquid chromatography/tandem mass spectrometric analysis
- Type: ADME, organism-based
- Design: dose 50 mg/kg, route oral, time infinity
- setup_conditions: in vivo
experimental_endpoint: AUC(0-inf) (µM·h)
Enter your answer as a number in µM·h; do not include the unit.

Example cases with answers are listed next.
molecule	unit_of_measurement	experimental_value
O=C(Nc1ccc2sc(-c3ccc(F)c(F)c3)nc2c1)N1CCCC1	µM·h	7.39
O=C(Nc1ccc2sc(-c3ccc(F)c(F)c3)nc2c1)N1C[C@@H](F)[C@H](F)C1	µM·h	225

Next up:
Tell me measured AUC(0-inf) for O=C(Nc1ccc2sc(-c3ccc(F)c(F)c3)nc2c1)N1CCC(F)C1 (centres undefined) please.
108

* * *

- Tested on: HepG2
- method: Cytotoxicity against human HepG2 cells assessed as growth inhibition after 48 hrs by Alamar blue assay
- Type: cell-based
- setup_conditions: human, hepg2, 48 h
experimental_endpoint: EC90

Solved cases (4 shown):
molecule	EC90
Cl.S=C(NCCc1nc(-c2ccccc2)cs1)N1CCCCC1	> 50 µM
O=C(Nc1ccc2sc(-c3ccc(F)c(F)c3)nc2c1)N1CCC(F)(F)C1	> 50 µM
O=C(NCCc1nc(-c2cccc(F)c2)cs1)N1CCCC(F)C1 (stereo not given)	> 50 µM
O=C(Nc1ccc2sc(-c3ccc(F)cc3)nc2c1)N1CCCCC1	> 50 µM

Give reported EC90 value for CCN(CC)CCCC(C)Nc1c2ccc(Cl)cc2nc2ccc(OC)cc12 (stereo not given)
18.2 µM

* * *

- method: Cmax in mouse at 50 mg/kg, po administered as single dose via gavage as 7% Tween 80/3% EtOH/5% DMSO formulation by liquid chromatography/tandem mass spectrometric analysis
- Format: ADME, organism-based
- Parameters: dose 50 mg/kg, route oral
- setup_conditions: in vivo
experimental_endpoint: Cmax (µM)
Give a bare numeral; the unit µM is implied.

Specify reported Cmax for the compound shown: O=C(Nc1ccc2sc(-c3ccc(F)c(F)c3)nc2c1)N1CCC(F)C1 (stereo unspecified)
10

* * *

- method: Drug level in Swiss-Webster mouse plasma infected with Trypanosoma brucei rhodesiense STIB900 at 50 mg/kg, po bid administered via gavage for 4 days starting from 2 days post infection measured at 1 hr post last dose
- Assay type: ADME, organism-based
experimental_endpoint: concentration at 1 h (µM)
Give a bare numeral; the unit µM is implied.

Report concentration at 1 h for O=C(Nc1ccc2sc(-c3ccc(F)c(F)c3)nc2c1)N1CC[C@H](F)C1
18.6

* * *

Reported selectivity ratio values for a set of compounds
- method: Selectivity index, ratio of EC50 for human CRL8155 cells to EC50 for Trypanosoma brucei brucei BF427
- Type: toxicity
- setup_conditions: read-out: Ratio EC50

compound	experimental_endpoint	experimental_value
O=C(Nc1ccc2sc(-c3ccc(F)c(F)c3)nc2c1)N1CCC(F)(F)C1	selectivity ratio	> 54
CC1CCCCN1C(=O)NCCc1nc(-c2cccc(F)c2)cs1 (stereo not drawn)	selectivity ratio	> 1350
O=C(Nc1ccc2sc(-c3ccc(F)c(F)c3)nc2c1)N1CCCC1	selectivity ratio	369
O=C(NCCc1nc(-c2cccc(F)c2)cs1)N1CCCC(F)(F)C1	selectivity ratio	> 463

Provide selectivity ratio value for the following compound: O=C(Nc1ccc2sc(-c3ccc(F)c(F)c3)nc2c1)N1C[C@@H](F)[C@H](F)C1
> 238

Quick one: give measured selectivity ratio for O=C1CCN(C(=O)NCCc2nc(-c3cccc(F)c3)cs2)CC1
> 75

Give recorded selectivity ratio. Cl.S=C(NCCc1nc(-c2ccccc2)cs1)N1CCCCC1
> 2060

Consider the compound O=C(Nc1ccc2sc(-c3ccc(F)cc3)nc2c1)N1CCCC1 . State its measured selectivity ratio.
> 133

In one line, give reported selectivity ratio of the entry O=C(Nc1ccc2sc(-c3ccccc3F)nc2c1)N1CCCC1 .
> 51

* * *

- method: Drug level in mouse brain at 50 mg/kg, po administered as single dose via gavage measured at 24 hrs post dose by liquid chromatography/tandem mass spectrometric analysis
- Type: ADME, organism-based
- setup_conditions: read-out: Drug uptake
experimental_endpoint: concentration at 24 h (nM)
Answer with a number only, understood to be in nM.

Return the recorded concentration at 24 h value; entry: O=C(Nc1ccc2sc(-c3ccc(F)c(F)c3)nc2c1)N1CC[C@H](F)C1
280

* * *

Consider the following compounds and their measured concentration at 1 h readings.
- method: Drug level in mouse brain at 5 mg/kg, ip administered as single dose measured at 1 hr post dose by liquid chromatography/tandem mass spectrometric analysis
- Type: ADME, organism-based
- setup_conditions: read-out: Drug uptake
Lab book: enter the figure in nM, no units written.

compound	concentration at 1 h / nM
O=C(Nc1ccc2sc(-c3ccc(F)c(F)c3)nc2c1)N1C[C@@H](F)[C@H](F)C1	16200

Query compound follows.
Tell me measured concentration at 1 h for O=C(Nc1ccc2sc(-c3ccc(F)c(F)c3)nc2c1)N1CCC(F)C1 (stereo not given) please.
5480
